Please respond with reported OD 450 nm for every item in the list.
targetEntity: T1, Antigen CD66c (CEACAM6; Sino Biological, Inc.) (UniProt P40199 35-320)
T1 construct: Bought antigen, coated on the ELISA plate; construct not described; also called CECACAM6 (CD66c) antigen; CD66c antigen
T1 sequence (looked up): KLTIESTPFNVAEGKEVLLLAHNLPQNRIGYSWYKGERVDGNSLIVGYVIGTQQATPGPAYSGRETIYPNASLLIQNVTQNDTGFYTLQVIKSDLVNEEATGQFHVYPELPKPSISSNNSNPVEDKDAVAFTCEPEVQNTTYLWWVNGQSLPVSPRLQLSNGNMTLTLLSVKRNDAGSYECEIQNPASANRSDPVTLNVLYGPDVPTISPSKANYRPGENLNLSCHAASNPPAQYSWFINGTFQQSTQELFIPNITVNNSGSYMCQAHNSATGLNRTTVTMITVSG
procedureDetails: ELISA, CEACAM6 coated 100 ng/well, antibody at 123.46 ng/ml
All answers are understood in OD 450 nm, so give the number only.

So what's the measured OD 450 nm for this one? recombinant humanized anti-CD66c antibody Protein ID 2938 (Vk5 + VH7) (antibody, human IgG1, V domains shown, also called hu 2938) VH: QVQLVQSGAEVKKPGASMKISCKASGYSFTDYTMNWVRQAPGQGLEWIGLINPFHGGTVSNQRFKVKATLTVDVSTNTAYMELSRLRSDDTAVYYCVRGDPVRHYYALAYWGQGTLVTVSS VL: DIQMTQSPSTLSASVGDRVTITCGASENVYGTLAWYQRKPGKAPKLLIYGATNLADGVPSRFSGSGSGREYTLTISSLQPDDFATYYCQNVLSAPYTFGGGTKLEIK
2.56

So what's the measured OD 450 nm for this one? recombinant humanized anti-CD66c antibody Protein ID 3007 (Vk7 + VH6) (antibody, human IgG1, V domains shown, also called hu 3007; #43) VH: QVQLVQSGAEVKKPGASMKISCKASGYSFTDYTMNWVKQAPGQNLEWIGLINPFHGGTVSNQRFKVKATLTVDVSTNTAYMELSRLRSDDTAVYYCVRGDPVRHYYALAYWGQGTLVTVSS VL: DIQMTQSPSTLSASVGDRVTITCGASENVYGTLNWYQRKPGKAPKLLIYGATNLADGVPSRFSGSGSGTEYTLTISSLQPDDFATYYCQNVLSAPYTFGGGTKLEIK
2.9

So what's the measured OD 450 nm for this one? recombinant humanized anti-CD66c antibody Protein ID 3058 (Vk8 + VH11) (antibody, human IgG1, V domains shown, also called hu 3058; #86) VH: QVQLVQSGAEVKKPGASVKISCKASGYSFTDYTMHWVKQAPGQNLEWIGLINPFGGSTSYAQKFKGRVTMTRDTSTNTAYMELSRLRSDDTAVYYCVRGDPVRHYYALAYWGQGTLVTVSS VL: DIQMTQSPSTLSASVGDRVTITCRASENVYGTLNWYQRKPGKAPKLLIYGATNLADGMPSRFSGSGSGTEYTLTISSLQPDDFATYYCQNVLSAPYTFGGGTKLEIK
2.22

So what's the measured OD 450 nm for this one? anti-CD66c chimeric antibody 8F5 (antibody, human IgG1, V domains shown, also called chimeric 8F5; chi 8F5) VH: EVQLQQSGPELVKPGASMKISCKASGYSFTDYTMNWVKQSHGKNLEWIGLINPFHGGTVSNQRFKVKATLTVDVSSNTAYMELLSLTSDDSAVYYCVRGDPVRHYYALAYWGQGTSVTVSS VL: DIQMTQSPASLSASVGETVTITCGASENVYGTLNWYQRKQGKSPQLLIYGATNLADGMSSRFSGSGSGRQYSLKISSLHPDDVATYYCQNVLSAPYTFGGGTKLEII
2.83

So what's the measured OD 450 nm for this one? recombinant humanized anti-CD66c antibody Protein ID 3043 (Vk8 + VH6) (antibody, V domains shown, also called hu 3043; #71) VH: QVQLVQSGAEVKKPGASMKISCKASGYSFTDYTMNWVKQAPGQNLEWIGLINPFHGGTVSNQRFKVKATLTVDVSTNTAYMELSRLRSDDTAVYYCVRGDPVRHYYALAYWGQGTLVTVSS VL: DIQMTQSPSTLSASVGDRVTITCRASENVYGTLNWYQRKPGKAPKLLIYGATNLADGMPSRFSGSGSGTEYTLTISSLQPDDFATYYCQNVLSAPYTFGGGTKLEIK
2.29

So what's the measured OD 450 nm for this one? recombinant humanized anti-CD66c antibody Protein ID 3019 (Vk7 + VH10) (antibody, human IgG1, V domains shown, also called hu 3019; #51) VH: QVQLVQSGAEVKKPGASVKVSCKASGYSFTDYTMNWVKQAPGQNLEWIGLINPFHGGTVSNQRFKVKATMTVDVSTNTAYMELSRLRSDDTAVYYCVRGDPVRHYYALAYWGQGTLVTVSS VL: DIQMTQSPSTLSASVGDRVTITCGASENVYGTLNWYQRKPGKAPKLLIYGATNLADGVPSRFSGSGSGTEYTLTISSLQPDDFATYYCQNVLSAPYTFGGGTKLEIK
3.04
